B1: MLL5 (parent)
chain: TYLCERCQPRNLDKERAVLLQRRK

- Variants of: B1
- test-method-notes: protein stability index of a GFP-peptide fusion (GPS, HEK-293T) (PSI 1-6); higher = more stable;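 note: lentivirally expressed fusions sorted by FACS into six bins by GFP to DsRed ratio, PSI derived from sequencing read proportions per bin multiplied by bin number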
- condition-info: c terminus: a fixed tail appended
Give measured protein stability index for each item. Keep answers brief.

Sample answers from the record:
TYLCERCQPRGLDKERAVLLQRRK: 2.42
TYLCERCQPRNLDTERAVLLQRRK: 3.29
TYLCERCQPRNLDKERAVLLNRRK: 2.42
TYLCERCQPRNLDKERAVFLQRRK: 1.7
TYLCERCQPRNLDKERAVSLQRRK: 2.9
TYLCERCQPRNLDKERADLLQRRK: 2.73

Batch request: protein stability index per item, same order as input.
1. TYLCERCQPRNLDKERMVLLQRRK
2. TYLCERCQPRNCDKERAVLLQRRK
3. TYLCERCQPRNLDKSRAVLLQRRK
4. TYLCERCQPRNLDKERAVLLIRRK
5. TYLCERCQPRFLDKERAVLLQRRK
6. TYLCERCQPRNLDKEYAVLLQRRK
7. TYLCERCQPRNLDKERAVLLGRRK
8. TYLCERCQPRNLDGERAVLLQRRK

Ans:
1. 2.58
2. 1.85
3. 2.46
4. 1.73
5. 1.9
6. 1.79
7. 2.91
8. 1.77

Batch request: protein stability index per item, same order as input.
1. TVLCERCQPRNLDKERAVLLQRRK
2. TYLCCRCQPRNLDKERAVLLQRRK
3. TYLCDRCQPRNLDKERAVLLQRRK
4. TYLEERCQPRNLDKERAVLLQRRK
5. TYLCERCQPRNRDKERAVLLQRRK
6. TYLTERCQPRNLDKERAVLLQRRK
7. TYLCETCQPRNLDKERAVLLQRRK

Ans:
[2.16, 1.63, 2.87, 4.31, 2.02, 4.07, 1.92]

Looking up `TYLCERCQYRNLDKERAVLLQRRK` , I found its protein stability index recorded as 3.52

// provenance: the supplement of paper PMC10567573
